# tgt: Follistatin-related protein 3 (Homo sapiens) (UniProt O95633)
# Sequence (O95633 whole entry, looked up): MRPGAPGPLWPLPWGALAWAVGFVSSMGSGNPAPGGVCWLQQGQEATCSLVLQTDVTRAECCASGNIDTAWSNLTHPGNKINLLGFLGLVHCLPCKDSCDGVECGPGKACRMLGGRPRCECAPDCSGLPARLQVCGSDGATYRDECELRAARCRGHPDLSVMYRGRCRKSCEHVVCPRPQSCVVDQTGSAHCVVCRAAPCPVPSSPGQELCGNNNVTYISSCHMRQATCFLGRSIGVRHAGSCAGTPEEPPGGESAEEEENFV
# testDetails: FSTL3 binders on small-molecule microarrays, primary screen, biochemical, small-molecule microarray, 635 nm fluorescence (AID 1105);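 also: score merges emission near 667 nm and signal to noise per printed spot across three slides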
# conditionNotes: FSTL3 binding, higher = more signal
Please mark TRUE if the recorded composite z-score is equal to or greater than 0.7, and FALSE if it falls below.

>>> group("CC(C)[Si](C#CCCCC#N)(O[C@H](c1ccccc1)c1cn([C@H](C)c2ccccc2)nn1)C(C)C")
"TRUE"
>>> group("CC(C)C[C@@H]1NC(=O)[C@@H]2C[C@H](C(=O)O)[C@H](c3ccc(O)cc3)N2C1=O")
"TRUE"
>>> group("CCCCC(O)C1C=CC2C(=O)NC(=O)C2N1Nc1ccccn1 (configuration not stated)")
"FALSE"
>>> group("C=CCOC(=O)[C@H]1[C@@H]2C(=O)O[C@@H](c3ccccc3)[C@@H](c3ccccc3)N2[C@@H](c2ccc(OCCOC(=O)[C@H]3C[C@H]4C(=O)NCC(=O)N4[C@H]3c3ccc(O)cc3)cc2)[C@]12C(=O)Nc1ccc(I)cc12")
"TRUE"
>>> group("O=C1OCCC=C[C@H]2OC34C=CCN(CCN5CCOCC5)C(=O)[C@H]3N(CCCO)C(=O)[C@@H]4C12 (some centres not stated)")
"FALSE"
>>> group("Cc1ccc(S[C@]2(C(=O)NC3CC3)CC(=O)N(Cc3cc(C(F)(F)F)cc(C(F)(F)F)c3)[C@@H]2c2ccc(CO)cc2I)cc1")
"FALSE"

---

# tgt: Dihydroorotate dehydrogenase (quinone), mitochondrial (Plasmodium falciparum (isolate 3D7)) (UniProt Q08210)
# Sequence (Q08210 whole entry, looked up): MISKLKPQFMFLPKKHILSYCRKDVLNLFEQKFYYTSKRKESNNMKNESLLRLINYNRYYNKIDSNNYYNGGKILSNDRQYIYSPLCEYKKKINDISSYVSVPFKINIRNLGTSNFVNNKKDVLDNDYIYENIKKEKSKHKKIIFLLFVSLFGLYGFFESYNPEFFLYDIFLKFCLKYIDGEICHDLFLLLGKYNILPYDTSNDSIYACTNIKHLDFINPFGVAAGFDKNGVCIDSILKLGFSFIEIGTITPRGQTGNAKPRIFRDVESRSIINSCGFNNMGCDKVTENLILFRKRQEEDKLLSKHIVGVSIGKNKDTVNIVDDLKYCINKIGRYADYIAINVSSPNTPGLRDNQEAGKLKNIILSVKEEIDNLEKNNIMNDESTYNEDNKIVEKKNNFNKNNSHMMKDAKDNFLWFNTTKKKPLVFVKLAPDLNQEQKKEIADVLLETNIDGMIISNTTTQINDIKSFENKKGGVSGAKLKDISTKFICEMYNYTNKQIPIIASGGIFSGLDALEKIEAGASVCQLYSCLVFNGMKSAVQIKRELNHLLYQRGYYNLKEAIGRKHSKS
# testDetails: PfDHODH enzyme inhibitors, primary screen, biochemical, C-terminal His tag, absorbance 600 nm (AID 1175);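 also: recombinant parasite enzyme with a five histidine tag at its C terminus; test concentration not given here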
# conditionNotes: DCIP absorbance 600 nm, higher = more signal, called active from +8 up or from −8 down
recordedMetric: composite z-score

>>> value("[N-]=[N+]=NCc1ccccc1C[C@]1(C(=O)O)COC(c2ccc(OCCCO)cc2)=N1")
1.54
>>> value("CCCCNC(=O)c1ccc(C#C[Si](C)(C)C)c(OC(C)=O)c1")
-1.4
>>> value("C=C(CCCC)C(=O)CC[C@H](OC(C)=O)c1ccccc1OCCO")
-0.573
>>> value("Cc1ccc(F)cc1S(=O)(=O)N[C@@H]1CCN(Cc2ccc3c(c2)OCO3)C1")
0.171
>>> value("C=CCOC(=O)[C@H]1[C@@H]2C(=O)O[C@@H](c3ccccc3)[C@@H](c3ccccc3)N2[C@@H](c2ccc(OCCOC(=O)[C@H]3C[C@H]4C(=O)NCC(=O)N4[C@H]3c3ccc(O)cc3)cc2)[C@]12C(=O)Nc1ccc(I)cc12")
0.383
>>> value("COCCOC(=O)N1C(=O)[C@@]2(c3cc(C#CCC(C(=O)OC)C(=O)OC)ccc31)[C@H](C(=O)N1CCc3cc(OC)c(OC)cc3C1)[C@H]1C(=O)O[C@H](c3ccccc3)[C@H](c3ccccc3)N1[C@@H]2c1ccc(O)cc1")
-0.0728
>>> value("COC(=O)[C@@]1(Cc2ccc(F)cc2)[C@H]2c3cc(C(=O)N(C)C)n(CCn4cc([N+](=O)[O-])nc4C)c3C[C@H]2CN1C(=O)c1ccccc1")
-0.165
>>> value("C=CCC(OC(C)=O)[C@@H]1[C@@H](N(Cc2ccc(-c3cccc(C(F)(F)F)c3)o2)C(=O)c2cccc3ccccc23)c2cc(OCCCO)ccc2N1C(=O)c1ccc2ccccc2n1 (stereo not given in full)")
0.995
>>> value("C=CCNC(=O)[C@@H]1[C@H]2C(=O)O[C@H](c3ccccc3)[C@H](c3ccccc3)N2[C@H](c2ccc(O)cc2)[C@@]12C(=O)Nc1ccc(C#CC3(O)CCCCCC3)cc12")
0.0708
>>> value("CCCCC(=C=CC[C@@H](O)c1cccc(OCCO)c1)C[C@@H](O)COCc1ccccc1")
-2.23
>>> value("C=CC[C@]1(C(=O)NCc2ccccc2)COC(c2ccc(OCCCO)cc2)=N1")
-0.267
>>> value("COC(=O)[C@H](Cc1ccc(O)cc1)N1CC2=CCCC=C[C@@H]2[C@H]1[C@H](O)Cc1ccccc1")
-0.574
>>> value("COc1ccc(C#Cc2ccc3c(c2)[C@]2(C(=O)N3)[C@H](c3ccc(OCCO)cc3)N3[C@H](c4ccccc4)[C@H](c4ccccc4)OC(=O)[C@H]3[C@@H]2C(=O)O)cc1")
-12.9
>>> value("CCCCC(=C=CC[C@H](O)c1ccc(OCCO)cc1)C[C@H](O)c1ccccn1")
-2.06
>>> value("C[C@H]1C2[C@H](Cc3ccccc3)NC(=O)[C@]23C(=O)NCC(=O)N2CCC[C@H]2C(=O)NC/C=C\\C/C=C/C3[C@@H]2O[C@]12C (stereo not given in full)")
-0.173

---

// reported composite z-score per item
# tgt: Carbonic anhydrase 2 (Homo sapiens)
# testDetails: CAII small-molecule binders, profiling panel, biochemical, small-molecule microarray, Alexa647-labelled CAII (AID 1122)
# conditionNotes: CAII-A647 binding fluorescence, higher = more signal
recordedMetric: composite z-score

>>> value("COCCOC(=O)N1C(=O)[C@@]2(c3cc(C#CC4=CCCCC4)ccc31)[C@H](c1ccc(OCCO)cc1)N1[C@H](c3ccccc3)[C@H](c3ccccc3)OC(=O)[C@H]1[C@@H]2C(=O)N1CCCCCCC1")
0.623
>>> value("Cc1ccc(S[C@]2(C(=O)NCCCN(C)C)CC(=O)N(Cc3ccccc3Cl)[C@@H]2c2ccc(CO)cc2I)cc1")
0.815
>>> value("COCCOC(=O)N1C(=O)[C@@]2(c3cc(C#CC4(O)CCCCCC4)ccc31)[C@H](c1ccc(OCCO)cc1)N1[C@H](c3ccccc3)[C@H](c3ccccc3)OC(=O)[C@H]1[C@@H]2C(=O)N1CCCCCCC1")
0.357
>>> value("Cc1ccc(S(=O)(=O)N2[C@@H](c3ccccc3)C(C(=O)O)=CC[C@H]2c2ccc(C#N)cc2)cc1")
0.802

---

# tgt: Carbonic anhydrase 2 (Homo sapiens) (UniProt P00918)
# testDetails: CAII small-molecule binders, profiling panel, biochemical, small-molecule microarray, Alexa647-labelled CAII (AID 1122)
# conditionNotes: CAII-A647 binding fluorescence, higher = more signal
recordedMetric: composite z-score

>>> value("CC[C@H](C)C(=O)O[C@H]1CC[C@]2(C)C3=C(CCC2C1(C)C)[C@]1(C)CC[C@H]([C@H](C)CCCC(C)C)[C@@]1(C)CC3 (some centres undefined)")
-0.0247
>>> value("O=C1OCCC=C[C@H]2OC34C=CCN(CCN5CCOCC5)C(=O)[C@H]3N(CCCO)C(=O)[C@@H]4C12 (some centres undefined)")
0.0003
>>> value("CCCCC(O)C1C=CC2C(=O)NC(=O)C2N1Nc1ccccn1 (centres undefined)")
0.885
>>> value("O=C1O[C@H](c2ccccc2)[C@H](c2ccccc2)N2[C@H]1[C@@H](C(=O)N1CCN(c3ncccn3)CC1)[C@]1(C(=O)Nc3ccccc31)[C@H]2c1ccc(O)cc1")
0.672
>>> value("CC(C)(C)N1CC=CC23O[C@@H]4/C=C\\CCCOC(=O)C4[C@H]2C(=O)N(CCCCCCO)[C@@H]3C1=O (some centres undefined)")
0.938
>>> value("COC(=O)[C@@]1(Cc2ccc(F)cc2)[C@H]2c3cc(C(=O)N(C)C)n(CCN4CCOCC4)c3C[C@H]2CN1C(=O)c1ccccc1")
0.39
>>> value("COC(=O)[C@@]1(Cc2ccc(OC)cc2)[C@H]2c3cc(C(=O)N(C)C)n(Cc4ccsc4Br)c3C[C@H]2CN1C(=O)c1ccccc1")
0.898
>>> value("CC(C)N1CC=CC23O[C@@H]4C=CCCOC(=O)C4[C@H]2C(=O)N(CCCCCO)[C@@H]3C1=O (some centres undefined)")
0.853
>>> value("CC(=O)NCCCC[C@@H]1NC(=O)[C@@H]2C[C@H](C(=O)NCCCCCC[N+](C)(C)C)[C@H](c3ccc(O)cc3)N2C1=O")
0.188
>>> value("COCCOC(=O)N1C(=O)[C@@]2(c3cc(C#CC4(O)CCCCCC4)ccc31)[C@H](C(=O)NC[C@H](O)c1ccccc1)[C@H]1C(=O)O[C@H](c3ccccc3)[C@H](c3ccccc3)N1[C@@H]2c1ccc(O)cc1")
0.618
>>> value("CCCCC=C[C@@H](NC(=O)c1ccc(C(F)(F)F)cc1)c1ccccc1")
-0.273
>>> value("CC(C)=CCN(C(=O)C#Cc1ccccc1)[C@H](CO)c1ccccc1")
-0.0216
>>> value("CC(=O)n1cc(C(O)C2C=CC3C(=O)N(c4ccccc4)C(=O)C3N2Nc2ccccc2F)c2ccccc21 (centres undefined)")
0.754
>>> value("C=CC[C@]1(C(=O)OC)N=C(c2ccc(OCCCO)cc2)O[C@H]1c1ccccc1N=[N+]=[N-]")
0.429
>>> value("COc1ccc([Si](C)(C)[C@H]2[C@H](CCO)O[C@@]3(C(=O)N(Cc4ccccc4)c4ccc(N(C=O)c5ccccc5)cc43)[C@@H]2C)cc1")
0.189
>>> value("C=CCC(OC(C)=O)[C@@H]1[C@@H](N(Cc2ccc(-c3cccc(C(F)(F)F)c3)o2)C(=O)c2cccc3ccccc23)c2cc(OCCCO)ccc2N1C(=O)c1ccc2ccccc2c1 (some centres undefined)")
0.0138
>>> value("C/C=C/CN(C(=O)C#Cc1ccccc1)[C@H](CO[Si](C)(C)C(C)(C)C)c1ccccc1")
0.599
>>> value("CCCCCCc1nc(-c2ccc(OC)nc2)cc2c1[Si](C(C)C)(C(C)C)OC2")
0.445
>>> value("CCCCCN1CC=CC23O[C@@H]4C=CCOC(=O)[C@@H]4[C@H]2C(=O)N(CCCCCO)[C@@H]3C1=O (some centres undefined)")
0.854

Values from PubChem BioAssay
